# measurement-target: Bcl-xL protein (Homo sapiens, UniProt Q07817, N197C)
# Construct: (2-197)[N197C]; His-His (two His8 stretches joined by a Gly/Ala/Ser/Thr linker)
# Sequence (Q07817 2-197 N197C): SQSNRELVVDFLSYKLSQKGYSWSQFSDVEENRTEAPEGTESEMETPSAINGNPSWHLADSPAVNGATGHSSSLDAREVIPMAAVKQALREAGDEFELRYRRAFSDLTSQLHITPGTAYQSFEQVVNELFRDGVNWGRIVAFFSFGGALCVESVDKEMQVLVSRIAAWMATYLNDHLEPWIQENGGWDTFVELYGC
# protocol-notes: Fluorescence quenching assay (PUMA peptide displacement)
# condition-description: 1 nM protein, 400 nM peptide, 2 hours at 23° C.; KI determined from IC50
pKi: −log10 of the molar value.
parameter: pKi

Examples from the recorded data:
{"columns": ["compound", "measurement-target", "pKi"],
 "data": [
  ["CNCC#Cc1ccc(OCCCc2sc(N(CCCCCN(C)C)c3cc(C)c(Nc4nc5ccccc5s4)nn3)nc2C(=O)O)c(F)c1", "Bcl-xL protein (Homo sapiens, UniProt Q07817, N197C)", 11.82],
  ["Cc1cc(N(CCCC(O)C[N+]23CCC(CC2)CC3)c2nc(C(=O)[O-])c(CCCOc3ccc(C#CCN(C)C)cc3F)s2)nnc1Nc1nc2ccccc2s1 (stereo not shown)", "Bcl-xL protein (Homo sapiens, UniProt Q07817, N197C)", 11.51]
]}

a: CNCC#Cc1ccc(OCCCc2sc(N(CCCCC[N+](C)(C)CCCO)c3cc(C)c(Nc4nc5ccccc5s4)nn3)nc2C(=O)[O-])c(F)c1
b: COC(COc1ccc(C#CCN(C)C)cc1F)Cc1sc(N(C)c2cc(C)c(Nc3nc4ccccc4s3)nn2)nc1C(=O)O (stereo not shown)
QUERY: Out of a and b , name the one with the higher pKi. Pick one; state its label.
RESULT: a
